- Assay: logP by HPLC on reversed-phase column (C 18), EEC Directive 79/B31 Annex V.A8, methods A and B
- Type: physicochemical
- Experimental Context: reversed-phase HPLC column (C 18), LogP method B: HPLC reversed-phase C 18, 40° C., 0.1% aqueous formic acid / acetonitrile, linear gradient 10% to 90% acetonitrile
Measured Parameter: chromatographic logP

Cc1cnn(C)c1C(=O)N(C1CC1)S(=O)(=O)c1ccc(Oc2ccccc2)cc1 ... 3.6
CCOc1nn(C)cc1C(=O)N(C1CC1)S(=O)(=O)c1ccc(Oc2ccc(OC)cc2)c(O)c1 ... 3.8
CCCCCc1ccc(Oc2ccc(S(=O)(=O)N(C(=O)c3cn(C)nc3OC)C3CC3)c(Br)c2)cc1 ... 5.4
CCOc1nn(C)cc1C(=O)N(C1CC1)S(=O)(=O)c1ccc(Oc2cccc(Br)c2)cc1Br ... 4.2
CCOc1nn(C)cc1C(=O)N(C1CC1)S(=O)(=O)c1ccc(Oc2ccc(Br)cc2)cc1Br ... 4.2
COc1nn(C)cc1C(=O)N(C1CC1)S(=O)(=O)c1ccc(Oc2ccc(O)c(O)c2)cc1Br ... 4.2
Cc1nocc1C(=O)N(C1CC1)S(=O)(=O)c1ccc(Oc2ccccc2)cc1 ... 3.7
CCOc1nn(C)cc1C(=O)N(C1CC1)S(=O)(=O)c1ccc(OC2=CC(OC(F)(F)F)=CCC2)c(O)c1 ... 4.5
